Data provenance is paper PMC10620989.

molecular target: Mcl-1 (Mus musculus, UniProt P97287); experiment: Multifragment KTGS screen against Mcl-1 (5 TA x 38 SZ per well), LC-MS/MS; details: multifragment KTGS, 190 combinations per well, 10 μM Mcl-1, 20 μM each fragment, pH 7.4, 37 °C, 10 h; peak area with protein / without protein
Sequence (P97287 whole entry, the tested form may be a part): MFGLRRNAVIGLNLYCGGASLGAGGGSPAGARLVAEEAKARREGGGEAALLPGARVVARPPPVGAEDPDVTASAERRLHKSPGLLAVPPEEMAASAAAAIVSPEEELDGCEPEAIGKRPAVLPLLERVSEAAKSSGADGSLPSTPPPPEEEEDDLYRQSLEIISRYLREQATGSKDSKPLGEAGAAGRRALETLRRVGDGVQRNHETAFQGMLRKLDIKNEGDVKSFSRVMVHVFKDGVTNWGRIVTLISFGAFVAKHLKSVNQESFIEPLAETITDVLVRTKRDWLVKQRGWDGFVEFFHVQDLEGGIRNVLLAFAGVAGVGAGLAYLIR
measurement.label: Amplification coefficient 5TA x 38SZ

The following compounds have reported results that may help.
O=C(NS(=O)(=O)c1ccc(-c2ccc(C(F)(F)F)cc2)cc1)c1cccc(NCCc2ccccc2)c1 12
O=C(NS(=O)(=O)c1ccc(-c2ccc(Oc3ccccc3)cc2)cc1)c1ccc(CCc2ccccn2)cc1 9
[N-]=[N+]=NS(=O)(=O)c1ccc(CN(CCSc2ccccc2)Cc2ccc(S(=O)(=O)NC(=O)c3ccc(CCc4ccccn4)cc3)cc2)cc1 22

(1) Cn1cc(C(=O)c2cccs2)c2cc(C(=O)NS(=O)(=O)c3ccc(CN(CCSc4ccccc4)Cc4ccc5c(c4)OCO5)cc3)ccc21
(2) COc1cccc(CN(CCSc2ccccc2)Cc2ccc(S(=O)(=O)NC(=O)c3ccc4c(c3)c(C(=O)c3cccs3)cn4C)cc2)c1
Consider 1 and 2 . Which of these has its Amplification coefficient 5TA x 38SZ at a higher number? Label of pick, please.
1
